# credit: ChEMBL document CHEMBL5537177

method: AUC (infinity) in mouse at 10 mg/kg, po
Type: ADME, organism-based
condition_details: in vivo
reported_metric: AUC(0-inf) (ng·h/mL)
Provide only the numeric value, understood in ng·h/mL.

// AUC(0-inf) value for CCN1CCN(Cc2ccc(NC(=O)c3cc(Cl)cc(NC(=O)c4cncc(-c5cccs5)c4)c3)cc2C(F)(F)F)CC1 : 1640

----------
Test system: Plasmodium falciparum
method: Antimalarial activity against synchronized Plasmodium falciparum Dd2 assessed as reduction in parasite growth at early asexual stage treated 36 hrs post-invasion measured after 72 hrs by SYBR green I dye based microscopy
Type: functional, organism-based
reported_metric: pEC50
Units for pEC50: none; it is -log10 of a concentration expressed in mol/L.

// pEC50 value for CCN1CCN(Cc2ccc(NC(=O)c3cc(Cl)cc(NC(=O)c4cncc(-c5cccs5)c4)c3)cc2C(F)(F)F)CC1 : 7.10

----------
Tested on: Plasmodium falciparum
method: Antimalarial activity in ring-stage Plasmodium falciparum Dd2-B2 infected in human O+ erythrocytes assessed as reduction in parasitemia incubated for 72 hrs by SYBR Green I/ MitoTracker Deep Red dye based flow cytometry
Type: functional, organism-based
condition_details: Dd2-B2, 72 h
reported_metric: pEC50
Units for pEC50: none; it is -log10 of a concentration expressed in mol/L.

// pEC50 value for CCN1CCN(Cc2ccc(NC(=O)c3cc(Cl)cc(NC(=O)c4cncc(-c5cccs5)c4)c3)cc2C(F)(F)F)CC1 : 7.39

----------
Tested on: MCF7
method: Cytotoxicity against human MCF7 cells assessed as reduction in cell viability incubated for 48 hrs by MTS assay
Type: toxicity, cell-based
condition_details: mcf7
reported_metric: pEC50
Units for pEC50: none; it is -log10 of a concentration expressed in mol/L.

>  <compound_smiles>
CCN1CCN(Cc2ccc(NC(=O)c3cc(Cl)cc(NC(=O)c4cccnc4)c3)cc2C(F)(F)F)CC1

>  <system_tested>
MCF7

>  <pEC50>
4.96

$$$$
>  <compound_smiles>
CCN1CCN(Cc2ccc(NC(=O)c3cc(Cl)cc(NC(=O)c4cncc(-c5ccccc5)c4)c3)cc2C(F)(F)F)CC1

>  <system_tested>
MCF7

>  <pEC50>
5.36

$$$$
>  <compound_smiles>
CCN1CCN(Cc2ccc(C(=O)Nc3cc(Cl)cc(NC(=O)c4cncc(-c5cccs5)c4)c3)cc2C(F)(F)F)CC1

>  <system_tested>
MCF7

>  <pEC50>
5.15

$$$$

Now consider the entry below.
// pEC50 value for CCN1CCN(Cc2ccc(NC(=O)c3ccnc(NC(=O)c4cncc(-c5cccs5)c4)c3)cc2C(F)(F)F)CC1 : 5.34

----------
method: Cmax in mouse at 10 mg/kg, po
Assay type: ADME, organism-based
condition_details: in vivo
reported_metric: Cmax (ng/mL)
Provide only the numeric value, understood in ng/mL.

// Cmax value for CCN1CCN(Cc2ccc(NC(=O)c3cc(Cl)cc(NC(=O)c4cncc(-c5cccs5)c4)c3)cc2C(F)(F)F)CC1 : 153

----------
Parameter EC50: see the listing below.
Tested on: HepG2
method: Cytotoxicity against human HepG2 cells assessed as reduction in cell viability incubated for 48 hrs by MTS assay
Assay type: toxicity, cell-based
condition_details: hepg2
Provide only the numeric value, understood in µM.

>  <compound_smiles>
CCN1CCN(Cc2ccc(NC(=O)c3ccc(F)c(NC(=O)c4cncc(-c5cccs5)c4)c3)cc2C(F)(F)F)CC1

>  <val>
3.17

$$$$

// EC50 value for CCN1CCN(Cc2ccc(NC(=O)c3cc(NC(=O)c4cncc(-c5cccs5)c4)ccc3F)cc2C(F)(F)F)CC1 : 6.71

// EC50 value for CCN1CCN(Cc2ccc(NC(=O)c3cc(Cl)cc(NC(=O)c4cnc(N)nc4)c3)cc2C(F)(F)F)CC1 : 19.2

// EC50 value for CCN1CCN(Cc2ccc(C(=O)Nc3cc(Cl)cc(NC(=O)c4cncc(-c5cccs5)c4)c3)cc2C(F)(F)F)CC1 : 9.16
